Experiment: RAM signaling pathway blockade in yeast – S. cerevisiae, Pdr1DBD-CYC8 efflux-inhibited sensitized strain, primary screen (AID 1298);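 also: 0% = DMSO untreated cells without growth and 100% = 10 µM 1-NA-PP1 full growth; higher means more yeast growth rescued from 5-FOA killing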
Details: S. cerevisiae cbk1-as DSE1-URA3 strain, 5-FOA growth OD615, 2 d; at 50 µM; hits give high values
Provide the reported RAM network inhibition of each item.
# number only, unit % dropped from output

Please look at this compound and report its RAM network inhibition: "CCC(=O)N1CCc2cc(Br)cc(S(=O)(=O)NCc3ccco3)c21"
1.85

Give RAM network inhibition for the following compound: "CCOc1ccc2[nH]c(C)c(CN3CCOCC3)c(=O)c2c1"
2.56

Tell me RAM network inhibition reported for "O=C(NCCCN1CCCCC1)C1(S(=O)(=O)c2ccc(Cl)cc2)CC1"
2.82

Find the measured RAM network inhibition of "CCOc1cccc(C(=O)Nc2cc(-c3nn4c(C)nnc4s3)ccc2C)c1" and report it.
2.22

Output RAM network inhibition of "CCN(CC)S(=O)(=O)c1ccc2oc(C(=O)NCc3ccc(F)cc3)c(C)c2c1"
7.7

Output measured RAM network inhibition for this item: "Cc1cc(C)cc(OCC(=O)Nc2cccc(-c3nc4ncccc4o3)c2)c1"
6.74

Indicate the recorded RAM network inhibition value for this compound: "O=C(CNS(=O)(=O)c1cccc2nsnc12)NCc1ccc(Cl)cc1"
4.28

Name the recorded RAM network inhibition of the compound listed here: "CN(C)c1ccnc2sc(C(=O)NCc3ccccc3)c(N)c12"
1.39

Give the measured RAM network inhibition for "Cn1c(C(=O)N2CCN(Cc3ccc4c(c3)OCO4)CC2)cc2c(=O)n(C)c3ccccc3c21"
0.67

State its RAM network inhibition for this compound: "Cc1cc(C(=O)N2CCN(c3ccccn3)CC2)c(C)o1"
4.2

Give reported RAM network inhibition value for "CCCCCn1c(=O)[nH]c2cc(C(=O)NCc3ccc4c(c3)OCO4)ccc2c1=O"
5.87

Specify measured RAM network inhibition for COc1cccc(C2CC(c3cccc(C)c3)n3ncnc3N2)c1 (configuration not stated) .
0.74

Could you please provide reported RAM network inhibition for "N#Cc1nc(COc2cccc(Cl)c2)oc1N1CCCC1" ? Thanks!
0.47

Fill in reported RAM network inhibition for this entry: "CCOc1ccc(-c2noc(CCC(=O)O)n2)cc1"
0.42

Specify measured RAM network inhibition for "CN(Cc1ccccc1)C(=O)CCn1c(=O)oc2ccccc21" .
1.99

Name the recorded RAM network inhibition of the item "O=C(CSc1nccn1-c1cccc(Cl)c1)Nc1ccc2c(c1)OCCO2" in your answer.
3.35

Report RAM network inhibition for COCCOC(=O)C1=C(C)NC2=C(C(=O)CCC2)C1c1ccc2c(c1)OCO2 (configuration not stated)
0.14

Give reported RAM network inhibition value for CSCCC1(C(=O)O)NC(c2ccccc2O)C2C(=O)N(C(C)C)C(=O)C21 (configuration not stated)
3.49

Fill in RAM network inhibition for record "COc1ccc(-n2c(Cc3cc(=O)[nH]c(=O)[nH]3)nnc2SCc2ccccc2)cc1"
3.82

Name the recorded RAM network inhibition of the compound listed here: "Brc1ccc(CSc2ncn[nH]2)cc1"
0.27

Tell me RAM network inhibition reported for "CCOC(=O)c1c(C)oc2cc(Br)c(O)c(Br)c12"
0.68

Look up and state reported RAM network inhibition for CCOC(=O)C1=C(C)N=c2s/c(=C\c3ccncc3)c(=O)n2C1c1ccc2c(c1)OCO2 (configuration not stated)
8.86

Data provenance: PubChem BioAssay
